- TEST_PROTOCOL: Quantitative High-Throughput drug screen in 47 multiple myeloma cell lines against the NCATS MIPE library collection: NCIH929_DSMZ cell viability assay (AID 1918978); note: nearly all actives have a fitted effect of over 35% in size
- MEASUREMENT_CONTEXT: NCI-H929 myeloma viability, CellTiter-Glo ATP, 48 h; series mostly up to 45.8 µM
Results filed as inconclusive are left out. The source made the active and inactive calls. Calls come from the whole dose curve; as a rule, active = well fitted cell-killing curve with a large enough effect; inconclusive = small, poorly fitted or top-dose-only effect; inactive = no such curve, though single readings can be large or run the other way.
Possible outcomes: yes (active), no (inactive)

>  <COMPOUND_STRING>
CN[C@@H](C)[C@H]1[C@H](O)C[C@@]2(C)[C@@H]3CC[C@H]4C(C)(C)[C@@H](NC)CC[C@@]45C[C@@]35CC[C@]12C

>  <CATEGORY>
no

$$$$
>  <COMPOUND_STRING>
CN(CC=CC#CC(C)(C)C)Cc1cccc2ccccc12

>  <CATEGORY>
no

$$$$
>  <COMPOUND_STRING>
CC[C@H]1OC(=O)[C@H](C)[C@@H](O[C@H]2C[C@@](C)(OC)[C@@H](O)[C@H](C)O2)[C@H](C)[C@@H](O[C@@H]2O[C@H](C)C[C@H](N(C)C)[C@H]2O)[C@](C)(O)C[C@H](C)C(=NOCOCCOC)[C@H](C)[C@@H](O)[C@]1(C)O

>  <CATEGORY>
no

$$$$
>  <COMPOUND_STRING>
O=C(c1ccc(C=Cc2n[nH]c3ccccc23)cc1)N1CCNCC1

>  <CATEGORY>
yes

$$$$

// provenance: PubChem BioAssay (NCATS)
